Recorded measurements of viability, T/C, one per entry
# System: 323965-272-R-J2-PDC complex spheroid viability
# METHOD: Anticancer human tumor 323965-272-R-J2-PDC patient-derived pancreatic carcinoma cell line growth inhibition [CLK]
# TEST_CONDITIONS: second compound 3.16 µM; first compound 10 µM; hits give low values
Quick reminder: number only, in %, skip the unit.

COC1C=CCC(C)C(C)S(=O)(=O)NC(=O)c2ccc3c(c2)N(CC2CCC21)CC1(CCCc2cc(Cl)ccc21)CO3 (configuration not stated) + CN1CCN(c2cc(C(=O)Nc3cc4cc(-c5cnn(C)c5)ccc4cn3)ccn2)CC1 | 2.44

# next molecule below
-- ask Recall the reported viability, T/C of CC(=O)O[C@H]1C(=O)[C@@]2(C)[C@H]([C@H](OC(=O)c3ccccc3)[C@]3(O)C[C@H](OC(=O)[C@H](O)[C@@H](NC(=O)c4ccccc4)c4ccccc4)C(C)=C1C3(C)C)[C@]1(OC(C)=O)CO[C@@H]1C[C@@H]2O + CN1CCN(c2cc(C(=O)Nc3cc4cc(-c5cnn(C)c5)ccc4cn3)ccn2)CC1 when tested on 323965-272-R-J2-PDC complex spheroid viability.
-- reply 5.16

----------
# Test system: 323965-272-R-J2-PDC complex spheroid viability
# METHOD: Anticancer human tumor 323965-272-R-J2-PDC cell line growth inhibition [CLK]
# TEST_CONDITIONS: second compound 0.0316 µM; first compound 0.01 µM; hits give low values
Recorded measurements of viability, T/C, one per entry

Examples with answers:
Cn1ncnc1[C@H]1c2n[nH]c(=O)c3cc(F)cc(c23)N[C@@H]1c1ccc(F)cc1 + CNC(=O)c1ccc(Nc2nc(OC3CCCC3)c3c(-c4ccc5nc(C)oc5c4)c[nH]c3n2)c(OC)c1 | 110%
CCc1c2c(nc3ccc(O)cc13)-c1cc3c(c(=O)n1C2)COC(=O)[C@]3(O)CC + CNC(=O)c1ccc(Nc2nc(OC3CCCC3)c3c(-c4ccc5nc(C)oc5c4)c[nH]c3n2)c(OC)c1 | 42.4%
Cn1ncnc1[C@H]1c2n[nH]c(=O)c3cc(F)cc(c23)N[C@@H]1c1ccc(F)cc1 + CN1CCN(c2cc(C(=O)Nc3cc4cc(-c5cnn(C)c5)ccc4cn3)ccn2)CC1 | 93.3%

-- ask For the compound COc1c(OCCCN2CCOCC2)ccc2c3n(c(=NC(=O)c4cnc(N)nc4)nc12)CCN3 + CN1CCN(c2cc(C(=O)Nc3cc4cc(-c5cnn(C)c5)ccc4cn3)ccn2)CC1 , give its reported viability, T/C.
-- reply 77.1%

-- ask For the compound CCc1c2c(nc3ccc(O)cc13)-c1cc3c(c(=O)n1C2)COC(=O)[C@]3(O)CC + CN1CCN(c2cc(C(=O)Nc3cc4cc(-c5cnn(C)c5)ccc4cn3)ccn2)CC1 , give its reported viability, T/C.
-- reply 41.7%

----------
# Tested on: 323965-272-R-J2-PDC complex spheroid viability
# METHOD: Anticancer human tumor 323965-272-R-J2-PDC cell line growth inhibition [CLK]
# TEST_CONDITIONS: second compound 0.316 µM; first compound 3.16 µM; hits give low values
PROPERTY_LABEL: viability, T/C (%)
Quick reminder: number only, in %, skip the unit.

Examples with answers:
C=CC(=O)N1CCN(c2nc(=O)n(-c3c(C)ccnc3C(C)C)c3nc(-c4c(O)cccc4F)c(F)cc23)C(C)C1 (centres undefined) + CN1CCN(c2cc(C(=O)Nc3cc4cc(-c5cnn(C)c5)ccc4cn3)ccn2)CC1 | 17.4
C=C(F)C(=O)N1CCN(c2nc(OCC3CCCN3C)nc3c2CCN(c2cccc4cccc(Cl)c24)C3)CC1CC#N (centres undefined) + CN1CCN(c2cc(C(=O)Nc3cc4cc(-c5cnn(C)c5)ccc4cn3)ccn2)CC1 | 13.2
COc1ccc([C@@H](O)c2cc(-c3ncnc4cc(N5CCOCC5)ccc34)c(F)cc2Cl)nn1 + CNC(=O)c1ccc(Nc2nc(OC3CCCC3)c3c(-c4ccc5nc(C)oc5c4)c[nH]c3n2)c(OC)c1 | 49.4

-- ask For the compound Nc1ccccc1NC(=O)c1ccc(CNC(=O)OCc2cccnc2)cc1 + CN1CCN(c2cc(C(=O)Nc3cc4cc(-c5cnn(C)c5)ccc4cn3)ccn2)CC1 , give its reported viability, T/C.
-- reply 17.1

-- ask For the compound COc1ccc([C@@H](O)c2cc(-c3ncnc4cc(N5CCOCC5)ccc34)c(F)cc2Cl)nn1 + CN1CCN(c2cc(C(=O)Nc3cc4cc(-c5cnn(C)c5)ccc4cn3)ccn2)CC1 , give its reported viability, T/C.
-- reply 19.1

----------
# Test system: 323965-272-R-J2-PDC complex spheroid viability
# METHOD: Anticancer human tumor 323965-272-R-J2-PDC cell line growth inhibition [CLK]; active means viability on the fitted dose curve at most 10% of control; inactive means the rest;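 further: spheroids exposed to agents for seven days before readout; percent of DMSO vehicle control wells so 100% = untreated growth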
# TEST_CONDITIONS: second compound 3.16 µM; first compound 0.00316 µM
Can you answer with just one of these options? active, inactive

Worked examples, 4 compounds total:
CCN1CCN(Cc2ccc(Nc3ncc(F)c(-c4cc(F)c5nc(C)n(C(C)C)c5c4)n3)nc2)CC1 + CNC(=O)c1ccc(Nc2nc(OC3CCCC3)c3c(-c4ccc5nc(C)oc5c4)c[nH]c3n2)c(OC)c1 | inactive
COc1c(OCCCN2CCOCC2)ccc2c3n(c(=NC(=O)c4cnc(N)nc4)nc12)CCN3 + CNC(=O)c1ccc(Nc2nc(OC3CCCC3)c3c(-c4ccc5nc(C)oc5c4)c[nH]c3n2)c(OC)c1 | inactive
CCc1c2c(nc3ccc(O)cc13)-c1cc3c(c(=O)n1C2)COC(=O)[C@]3(O)CC + CNC(=O)c1ccc(Nc2nc(OC3CCCC3)c3c(-c4ccc5nc(C)oc5c4)c[nH]c3n2)c(OC)c1 | inactive
CCN1CCN(Cc2ccc(Nc3ncc(F)c(-c4cc(F)c5nc(C)n(C(C)C)c5c4)n3)nc2)CC1 + CN1CCN(c2cc(C(=O)Nc3cc4cc(-c5cnn(C)c5)ccc4cn3)ccn2)CC1 | active

Lab note: next compound to report on.
-- ask What did this assay record as the result for COc1c(OCCCN2CCOCC2)ccc2c3n(c(=NC(=O)c4cnc(N)nc4)nc12)CCN3 + CN1CCN(c2cc(C(=O)Nc3cc4cc(-c5cnn(C)c5)ccc4cn3)ccn2)CC1 ?
-- reply active

----------
# Tested on: 323965-272-R-J2-PDC complex spheroid viability
# METHOD: Anticancer human tumor 323965-272-R-J2-PDC cell line growth inhibition [CLK];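 further: spheroids exposed to agents for seven days before readout; percent of DMSO vehicle control wells so 100% = untreated growth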
# TEST_CONDITIONS: second compound 3.16 µM; first compound 0.316 µM; hits give low values
Recorded measurements of viability, T/C, one per entry
Quick reminder: number only, in %, skip the unit.

CC1(C)CCC(CN2CCN(c3ccc(C(=O)NS(=O)(=O)c4ccc(NCC5CCOCC5)c([N+](=O)[O-])c4)c(Oc4cnc5[nH]ccc5c4)c3)CC2)=C(c2ccc(Cl)cc2)C1 + CNC(=O)c1ccc(Nc2nc(OC3CCCC3)c3c(-c4ccc5nc(C)oc5c4)c[nH]c3n2)c(OC)c1 | 43.5

-- ask Recall the reported viability, T/C of COc1cccc2c1C(=O)c1c(O)c3c(c(O)c1C2=O)CC(O)(C(=O)CO)CC3OC1CC(N)C(O)C(C)O1 (configuration not stated) + CNC(=O)c1ccc(Nc2nc(OC3CCCC3)c3c(-c4ccc5nc(C)oc5c4)c[nH]c3n2)c(OC)c1 when tested on 323965-272-R-J2-PDC complex spheroid viability.
-- reply 20.8

----------
# Tested on: 323965-272-R-J2-PDC complex spheroid viability
# METHOD: Anticancer human tumor 323965-272-R-J2-PDC cell line growth inhibition [CLK];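 further: spheroids exposed to agents for seven days before readout; percent of DMSO vehicle control wells so 100% = untreated growth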
# TEST_CONDITIONS: second compound 1 µM; first compound 0.0316 µM; hits give low values
Recorded measurements of viability, T/C, one per entry
Quick reminder: number only, in %, skip the unit.

Examples with answers:
COc1c(OCCCN2CCOCC2)ccc2c3n(c(=NC(=O)c4cnc(N)nc4)nc12)CCN3 + CNC(=O)c1ccc(Nc2nc(OC3CCCC3)c3c(-c4ccc5nc(C)oc5c4)c[nH]c3n2)c(OC)c1 | 31.8
Cn1ncnc1[C@H]1c2n[nH]c(=O)c3cc(F)cc(c23)N[C@@H]1c1ccc(F)cc1 + CNC(=O)c1ccc(Nc2nc(OC3CCCC3)c3c(-c4ccc5nc(C)oc5c4)c[nH]c3n2)c(OC)c1 | 52

# next compound below
-- ask For the compound COc1cccc2c1C(=O)c1c(O)c3c(c(O)c1C2=O)CC(O)(C(=O)CO)CC3OC1CC(N)C(O)C(C)O1 (stereo not drawn) + CNC(=O)c1ccc(Nc2nc(OC3CCCC3)c3c(-c4ccc5nc(C)oc5c4)c[nH]c3n2)c(OC)c1 , give its reported viability, T/C.
-- reply 40.8

----------
# System: 323965-272-R-J2-PDC complex spheroid viability
# METHOD: Anticancer human tumor 323965-272-R-J2-PDC cell line growth inhibition [CLK];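 further: spheroids exposed to agents for seven days before readout; percent of DMSO vehicle control wells so 100% = untreated growth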
# TEST_CONDITIONS: second compound 0.0316 µM; first compound 0.0316 µM; hits give low values
Recorded measurements of viability, T/C, one per entry
Quick reminder: number only, in %, skip the unit.

Examples with answers:
CC(CO)NC(=O)c1cc(-c2ccc(Cl)cc2)nn(-c2cnn(C)c2)c1=O (centres undefined) + CNC(=O)c1ccc(Nc2nc(OC3CCCC3)c3c(-c4ccc5nc(C)oc5c4)c[nH]c3n2)c(OC)c1 | 122
CC(=O)O[C@H]1C(=O)[C@@]2(C)[C@H]([C@H](OC(=O)c3ccccc3)[C@]3(O)C[C@H](OC(=O)[C@H](O)[C@@H](NC(=O)c4ccccc4)c4ccccc4)C(C)=C1C3(C)C)[C@]1(OC(C)=O)CO[C@@H]1C[C@@H]2O + CNC(=O)c1ccc(Nc2nc(OC3CCCC3)c3c(-c4ccc5nc(C)oc5c4)c[nH]c3n2)c(OC)c1 | 32.8
C=CC(=O)N1CCN(c2nc(=O)n(-c3c(C)ccnc3C(C)C)c3nc(-c4c(O)cccc4F)c(F)cc23)C(C)C1 (centres undefined) + CNC(=O)c1ccc(Nc2nc(OC3CCCC3)c3c(-c4ccc5nc(C)oc5c4)c[nH]c3n2)c(OC)c1 | 61.4

-- ask For the compound COc1cccc2c1C(=O)c1c(O)c3c(c(O)c1C2=O)CC(O)(C(=O)CO)CC3OC1CC(N)C(O)C(C)O1 (centres undefined) + CN1CCN(c2cc(C(=O)Nc3cc4cc(-c5cnn(C)c5)ccc4cn3)ccn2)CC1 , give its reported viability, T/C.
-- reply 67.8
